Taken from patent US11066419B2.

EXPERIMENTAL_SYSTEM: recombinant human GSK3α (Homo sapiens, UniProt P49840)
Sequence (P49840 whole entry): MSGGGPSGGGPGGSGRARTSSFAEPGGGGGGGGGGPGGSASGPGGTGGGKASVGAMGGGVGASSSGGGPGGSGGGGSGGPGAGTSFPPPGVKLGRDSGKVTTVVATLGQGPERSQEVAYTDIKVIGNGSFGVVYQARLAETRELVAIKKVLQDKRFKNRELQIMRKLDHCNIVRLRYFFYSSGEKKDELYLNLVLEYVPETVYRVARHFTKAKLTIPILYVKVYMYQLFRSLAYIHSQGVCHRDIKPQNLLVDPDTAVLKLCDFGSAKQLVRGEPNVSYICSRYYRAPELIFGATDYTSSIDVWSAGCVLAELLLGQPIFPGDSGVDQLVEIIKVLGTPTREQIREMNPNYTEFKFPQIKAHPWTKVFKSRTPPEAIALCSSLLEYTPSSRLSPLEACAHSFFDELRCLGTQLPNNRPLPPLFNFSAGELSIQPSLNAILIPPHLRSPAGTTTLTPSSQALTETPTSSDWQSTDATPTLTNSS
PROCEDURE_SUMMARY: In vitro enzymatic assay for inhibition of GSK3α (Kinase-Glo Max luminescence)
Format: biochemical
DETAILS: 10 uM ATP, 0.1 mg/ml GSKtide, 30° C. 40 minutes, read-out: Potency Alpha
MEASURED_PROPERTY: IC50

Inquiry: # return recorded IC50 for input O=C1NC(=O)C(c2cnc3ccccn23)=C1c1cn2c3c(cc(F)cc13)CN(C(=O)N1CC3CCC(C1)O3)CC2
Reply text: 1 to 10 nM

Inquiry: # return recorded IC50 for input CN1CC2CC1CN2C(=O)N1CCn2cc(C3=C(c4cnc5ccccn45)C(=O)NC3=O)c3cc(F)cc(c32)C1 (centres unmarked)
Reply text: 1 to 10 nM

---
Inquiry: # return recorded IC50 for input N#Cc1cc2c3c(c1)c(C1=C(c4cnc5ccccn45)C(=O)NC1=O)cn3CCN(C(=O)N1CCC(F)(F)CC1)C2
Reply text: 1 to 10 nM

Inquiry: # return recorded IC50 for input O=C1NC(=O)C(c2cnc3ccccn23)=C1c1cn2c3c(cc(F)cc13)CN(C(=O)N1CCOCC(F)(F)C1)CC2
Reply text: 1 to 10 nM

Inquiry: # return recorded IC50 for input O=C1NC(=O)C(c2cn3c4c(cc(F)cc24)CN(C(=O)N2CCCCC2)CC3)=C1c1noc2ccccc12
Reply text: 10 to 100 nM
